# Test system: Plasmodium falciparum
# method: Antimicrobial activity against chloroquine and pyrimethamine-resistant Plasmodium falciparum K1 in erythrocytes
# Assay type: functional, organism-based

smiles code: Cc1nc2cc(OCc3cc(C(=O)NO)no3)ccc2s1
unit label: µM
qualifier sign: =
IC50: 2.76
//
smiles code: COC(=O)[C@H](NC(=O)c1cc(COc2ccc3sc(C)nc3c2)on1)c1ccccc1
unit label: µM
qualifier sign: =
IC50: 3.33
//
smiles code: Cc1nc2cc(OCc3cc(C(=O)NCc4ccccc4)no3)ccc2s1
unit label: µM
qualifier sign: =
IC50: 3.43
//
smiles code: Cc1nc2cc(OCc3cc(C(=O)N[C@H](C(=O)NO)c4ccccc4)no3)ccc2s1
unit label: µM
qualifier sign: =
IC50: 1.82
//
smiles code: COC(=O)[C@@H](NC(=O)c1cc(CSc2nc3ccccc3s2)on1)c1ccccc1
unit label: µM
qualifier sign: >
IC50: 5
//
smiles code: COC(=O)[C@@H](NC(=O)c1nc(COc2ccc3sc(C)nc3c2)cs1)c1ccccc1
unit label: µM
qualifier sign: =
IC50: 4.86
